Experiment: qHTS Assay for inhibitors of the human cytomegalovirus (HCMV); note: % is set by controls: 0 for no effect and ±100 for the full control effect
Details: HFF cells, HCMV-luciferase reporter, 72 h; at 57.5 µM; active compounds read low
Hit rate of the full screen: of about 410,000 compounds, about 18,000 (4.4%) were called active. Roughly 7% stayed inconclusive and do not appear here. The list comes from a sample in which actives are over-represented; it also holds close analogues and randomly drawn compounds.
PROPERTY: activity change, negative = inhibition (%)
Output spec: scalar in %, unitless text.

Q: activity change, negative = inhibition for C/C(N)=C(/C#N)C(=O)COC(=O)CNS(=O)(=O)c1ccc(C)cc1 ?
A: -80.1

Q: activity change, negative = inhibition for CCN(CCCNC(=O)c1ccc(Sc2ccc(C)cc2)c(NC(C)=O)c1)c1cccc(C)c1 ?
A: -13.8

Q: activity change, negative = inhibition for COc1cccc(OC)c1C(=O)OCC(=O)/C(C#N)=C(\C)N ?
A: -27.5

Q: activity change, negative = inhibition for Cn1c2ccccc2c(=O)c2c(=O)n(Cc3ccco3)c(COc3ccccc3)nc21 ?
A: -81.5

Q: activity change, negative = inhibition for Cc1ccc(C)c(NC(=O)CSC2=Nc3ccccc3N=C(c3ccc(F)cc3)C2)c1 ?
A: 22.5

Q: activity change, negative = inhibition for C=C(C)CNC(=S)N/N=C/c1ccccc1OCC(=O)O ?
A: -63.4

Q: activity change, negative = inhibition for COc1cc(NC(=O)Cn2c(=O)n(Cc3ccco3)c(=O)c3oc4ccccc4c32)cc(OC)c1 ?
A: -18.5

Q: activity change, negative = inhibition for CCS(=O)(=O)N1CCc2cc(C(=O)NCc3ccc(C)cc3)ccc21 ?
A: -3.25

Q: activity change, negative = inhibition for Cc1cc(C)cc(OCC(=O)Nc2nc(-c3ccc(F)cc3)ns2)c1 ?
A: 150

Q: activity change, negative = inhibition for CCCNC(=O)CCC(=O)N1Cc2ccccc2Oc2ncccc21 ?
A: 2.27
